- Tested on: CtBP / adenovirus E1A interaction (AlphaScreen)
- ASSAY NAME: qHTS Assay for Inhibitors of the CtBP/E1A Interaction; note: % is set by controls: 0 for no effect and ±100 for the full control effect
- EXPERIMENTAL CONTEXT: AlphaScreen GST-E1A/His-CtBP binding, 1536-well; stronger effect = lower value
Hit rate of the full screen: of about 340,000 compounds, about 1,700 (0.5%) were called active. Inconclusive results (about 2%) are left out. What follows is part of a selection rich in actives, with near analogues and random picks from the rest.
TEST READOUT: activity change (%)
Answer format: numeric, % implied, no suffix.

Query string: Record lookup: for CtBP / adenovirus E1A interaction (AlphaScreen), what activity change belongs to COC(=O)C1=CN(c2c(C)cc(C)cc2C)C(N)=C(C#N)C1c1cccc(F)c1 (stereo not given) ?
Result string: 3.08

Query string: // fetch CtBP / adenovirus E1A interaction (AlphaScreen) activity change for COC(=O)c1ccccc1N=NNc1ccc([N+](=O)[O-])cc1
Result string: -2.76

Query string: Query activity change on CtBP / adenovirus E1A interaction (AlphaScreen) for C[C@H]1CN([C@@H](C)CO)S(=O)(=O)c2ccc(Br)cc2O[C@H]1CN(C)C(=O)c1cnccn1
Result string: 0.784

Query string: Reported activity change for CtBP / adenovirus E1A interaction (AlphaScreen), given CC(C)C[C@@H](COCc1ccc(Cl)cc1)N1CCN(C(=O)c2ccc(Cl)cc2Cl)CCC1=O ?
Result string: 0

Query string: Please state recorded activity change (tested on CtBP / adenovirus E1A interaction (AlphaScreen)) of O=C(Nc1ccc(Cl)c(C(F)(F)F)c1)C1Cc2c(-c3ccccc3Oc3ccccc3)ccnc2O1 (stereo not given)
Result string: -3.42
